Some molecules, each annotated with its measured growth inhibition.
# assay_notes: NCI Yeast Anticancer Drug Screen. Data for the mlh1 rad18 strain (AID 175)
# measurement_conditions: S. cerevisiae mlh1 rad18 strain growth inhibition; at 50.0 µM; stronger effect = higher value
The panel holds about 79,000 compounds, 15% with a hit somewhere; the sample as a whole holds those more often.
A number alone suffices; assume %.

Use the examples below as a reference point.
[[record]]
molecule = "COc1ccc(-n2cc3c(=O)nccc-3c3ccccc32)cc1OC"
readout_type = "growth inhibition"
measure_unit = "%"
recorded_value = -0.6

[[record]]
molecule = "Fc1ccc(CN2COc3c(ccc4cccnc34)C2)c(F)c1"
readout_type = "growth inhibition"
measure_unit = "%"
recorded_value = 52.2

[[record]]
molecule = "O=COCCO"
readout_type = "growth inhibition"
measure_unit = "%"
recorded_value = -9.1


Tell me measured growth inhibition for N#Cc1ccc(OCc2nc(N)nc(N)c2-c2ccc(Cl)cc2)cc1 please.
14.8

Answer with reported growth inhibition of S=c1[nH]n(-c2ccccc2)c(=S)s1
-22.6

Specify measured growth inhibition for Cc1cc(=O)[nH]cn1 .
-4.9

Give the reported growth inhibition for this molecule. Clc1nc(Sc2ccc(Br)cc2)c(Cl)c(Sc2ccc(Br)cc2)n1
-17.6

Report measured growth inhibition; entry is [N-]=[N+]=C(C(=O)OCC#CCOC(=O)C(=[N+]=[N-])S(=O)(=O)c1ccccc1)S(=O)(=O)c1ccccc1
-17.1
